studyTarget: human PNMT (hPNMT) (Homo sapiens)
protocolNotes: Determination of inhibition constants and inhibition patterns for hPNMT
Type: biochemical
assayConditions: read-out: Kis; varied substrate AdoMet, fixed PEA 100 μM; pH 8.0, 30 °C
quantityName: Ki (nM)
Write the number in nM without appending the unit.

# get_value(readout='Ki', item= Nc1ncnc2c1ncn2[C@@H]1O[C@H](CSCC[C@H](N)C(=O)O)[C@@H](O)[C@H]1O )
800

====

studyTarget: human PNMT (hPNMT) (Homo sapiens, UniProt P11086)
Sequence (P11086 1-282): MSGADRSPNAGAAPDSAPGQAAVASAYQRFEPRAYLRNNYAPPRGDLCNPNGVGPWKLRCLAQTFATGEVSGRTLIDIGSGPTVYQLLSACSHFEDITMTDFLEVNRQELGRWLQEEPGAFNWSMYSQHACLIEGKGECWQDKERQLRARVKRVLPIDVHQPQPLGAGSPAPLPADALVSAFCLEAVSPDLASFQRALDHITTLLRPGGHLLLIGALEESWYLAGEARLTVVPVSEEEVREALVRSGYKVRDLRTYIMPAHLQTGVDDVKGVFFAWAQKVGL
protocolNotes: Determination of inhibition constants and inhibition patterns for hPNMT
Format: biochemical
assayConditions: read-out: Kis; varied substrate PEA, fixed AdoMet 5 μM; pH 8.0, 30 °C
quantityName: pKi
Hey, just a heads up that pKi is the negative log base 10 of the concentration in molar.

# get_value(readout='pKi', item= Nc1ncnc2c1ncn2[C@@H]1O[C@H](CSCC[C@H](N)C(=O)O)[C@@H](O)[C@H]1O )
5.60

Where do these numbers come from? They come from paper PMC3853373.
